- System: MEK6;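 further: KINOMEscan kinase panel screen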
- Construct: gene MAP2K6
- Condition notes: concentration: 1 μM,replicates: in singlicate; n = 1
Assay metric: %Inh (%)
Answer with a number only, understood to be in %.

Examples from the recorded data:
[[record]]
molecule = "O=C(Nc1ccc(Oc2ccc3nc(NC(=O)C4CC4)cn3n2)c(F)c1)c1cccn(-c2ccccc2)c1=O"
tgt = "MEK6"
endpoint_value = 0

[[record]]
molecule = "Cc1ccc2c(-c3ccnc(Nc4ccc(C(F)(F)F)cc4)n3)cnn2n1 [GW819776]"
tgt = "MEK6"
endpoint_value = 13

[[record]]
molecule = "CC(C)S(=O)(=O)N1CCN(Cc2ccc3c(c2)nc(NC(=O)c2ccsc2)n3C[C@H](O)c2ccccc2)CC1 [GW635815]"
tgt = "MEK6"
endpoint_value = 0


Inquiry: # lookup: %Inh of COC(=O)c1cccc(NC(=O)NC2CCN(c3ccnc(Nc4cc(OC)c(OC)c(OC)c4)n3)C2)c1 (stereo not drawn) [GSK1379767]
Reply text: 4

Inquiry: # lookup: %Inh of Cl.c1ccc(Oc2ccc(Nc3ccnc4cc(-c5ccc(CN6CCNCC6)o5)ccc34)cc2)nc1 [GW567142]
Reply text: 16
